Target: Protein disulfide-isomerase (Homo sapiens)
Sequence (P07237 whole entry): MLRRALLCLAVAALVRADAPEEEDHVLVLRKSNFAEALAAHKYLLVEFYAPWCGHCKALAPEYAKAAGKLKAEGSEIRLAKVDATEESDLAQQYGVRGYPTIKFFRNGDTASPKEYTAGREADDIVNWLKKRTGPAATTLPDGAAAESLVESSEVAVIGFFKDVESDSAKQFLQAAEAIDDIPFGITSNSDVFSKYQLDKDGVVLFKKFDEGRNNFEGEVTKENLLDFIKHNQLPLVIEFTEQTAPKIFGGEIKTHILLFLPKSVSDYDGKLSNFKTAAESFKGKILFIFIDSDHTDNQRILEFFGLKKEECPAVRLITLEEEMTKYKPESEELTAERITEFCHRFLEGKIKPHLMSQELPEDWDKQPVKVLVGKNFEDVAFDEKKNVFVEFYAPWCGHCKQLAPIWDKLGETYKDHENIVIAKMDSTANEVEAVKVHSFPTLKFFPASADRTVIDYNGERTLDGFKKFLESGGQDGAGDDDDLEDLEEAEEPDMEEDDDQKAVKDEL
Assay: Binding affinity to recombinant His-tagged full length human PDI-b' x domain substrate binding pocket expressed in Escherichia coli BL21 (DE3) cells assessed as inhibition constant at 100 uM incubated for 10 mins by tryptophan fluorescence based assay
pKi: −log10 of the molar value.
readout: pKi

# smiles.repr, readout, readout.number
rows = [
    ("O=c1c(O)c(-c2ccccc2)oc2cc(O)cc(O)c12", "pKi", 5.23),
    ("COc1cc(C=O)ccc1OC(C)=O", "pKi", 3.51),
    ("O=C(/C=C/c1ccc(O)cc1)c1ccc(O)cc1O", "pKi", 4.44),
]
